assay-remarks: Aqueous solubility
Assay type: physicochemical
experimental-conditions: water; read-out: S
measured-metric: solubility

Please review the entries below; each comes with its answer.
Cn1c(O)nc2nc3ccc(OCCCC(=O)N4CCN(Cc5ccccc5)CC4)cc3cc21 = > 10000 µg/mL
CCOC(=O)N1CCN(c2ccc3[nH]c4nc(O)nc-4cc3c2)CC1 = < 10000 µg/mL

Next:
[in] Provide only the value of recorded solubility for O=C(CCCOc1ccc2[nH]c3nc(O)nc-3cc2c1)N1CCN(c2ccccn2)CC1
[out] > 10000 µg/mL

###

study-target: Phosphodiesterase 3 (Homo sapiens, UniProt Q14432+Q13370)
assay-remarks: Inhibition of human platelet c-AMP phosphodiesterase PDE 3
measured-metric: IC50 (nM)

Example molecules with recorded IC50:
O=C(CCCOc1ccc2[nH]c3nc(O)nc-3cc2c1)N1CCN(c2cccc(C(F)(F)F)c2)CC1 = 0.6
O=C(CCCOc1ccc2[nH]c3nc(O)nc-3cc2c1)N1CCN(Cc2ccc(Cl)cc2)CC1 = 2
COCCN1CCN(C(=O)CCCOc2ccc3[nH]c4nc(O)nc-4cc3c2)CC1 = 7
O=C1CN2Cc3cc(OCCCC(=O)N4CCN(Cc5ccccc5)CC4)ccc3N=C2N1 = 8
O=C(CCCOc1ccc2[nH]c3nc(O)nc-3cc2c1)N1CCN(Cc2ccc(C(F)(F)F)cc2)CC1 = 0.4

(1) O=C(CCCOc1ccc2[nH]c3nc(O)nc-3cc2c1)N1CCN(CCC2CCCCC2)CC1
(2) O=C(CCCOc1ccc2[nH]c3nc(O)nc-3cc2c1)N1CCN(C(c2ccc(F)cc2)c2ccc(F)cc2)CC1
(3) Cn1c(O)nc2nc3ccc(OCCCC(=O)N4CCN(CC5CCCCC5)CC4)cc3cc21
(4) O=C(CCCCOc1ccc2[nH]c3nc(O)nc-3cc2c1)N1CCN(Cc2ccccc2)CC1
[in] Arrange these molecules by their IC50, starting with the largest number. Write the labels in rank order as requested.
[out] 3, 2, 1, 4
